Taken from patent US20220265819A1.

molecular target: T1, full length recombinant human 2N4R tau (amino acids 1-441) (human, UniProt P10636 1-758); assay: SPR Biacore MCK, purified IgG on Protein A, tau analyte
T1 construct: Bought (rPeptide); recombinant, non-phosphorylated; also called recombinant tau
T1 sequence (P10636 other isoform, or with tags, fused parts or gaps limits assumed): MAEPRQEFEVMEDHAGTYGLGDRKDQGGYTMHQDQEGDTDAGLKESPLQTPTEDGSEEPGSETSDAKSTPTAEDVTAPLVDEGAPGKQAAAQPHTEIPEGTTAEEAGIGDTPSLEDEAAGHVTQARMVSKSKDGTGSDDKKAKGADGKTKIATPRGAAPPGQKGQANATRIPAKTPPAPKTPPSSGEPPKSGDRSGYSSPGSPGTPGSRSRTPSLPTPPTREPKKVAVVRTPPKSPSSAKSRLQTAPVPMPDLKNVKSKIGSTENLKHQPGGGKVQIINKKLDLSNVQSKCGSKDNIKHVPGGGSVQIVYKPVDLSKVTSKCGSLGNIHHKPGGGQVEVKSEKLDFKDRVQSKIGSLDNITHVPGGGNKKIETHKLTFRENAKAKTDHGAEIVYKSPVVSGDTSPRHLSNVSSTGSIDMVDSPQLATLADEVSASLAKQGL
I'd appreciate it if you could supply pKd values for the items below.
Answers are plain numbers, as −log10 of the molar value.

Example entries begin here.
Clone 32 (VH5Vκ4), humanised variant of clone #28, human IgG1 (antibody, V domains shown, also called VH5VK4; VH5Vk4) VH: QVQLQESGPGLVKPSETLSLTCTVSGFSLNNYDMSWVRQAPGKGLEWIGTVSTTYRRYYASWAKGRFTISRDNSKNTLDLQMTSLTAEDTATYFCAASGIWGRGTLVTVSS VL: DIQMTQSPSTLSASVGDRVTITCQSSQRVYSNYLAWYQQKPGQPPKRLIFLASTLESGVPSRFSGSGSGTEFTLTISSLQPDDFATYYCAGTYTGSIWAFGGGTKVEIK = 7.47
Clone 31 (VH5Vκ2), humanised variant of clone #28, human IgG1 (antibody, V domains shown, also called VH5VK2; VH5Vk2) VH: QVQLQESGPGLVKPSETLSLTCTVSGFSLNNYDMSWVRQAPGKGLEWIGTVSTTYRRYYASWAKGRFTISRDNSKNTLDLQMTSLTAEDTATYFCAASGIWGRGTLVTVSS VL: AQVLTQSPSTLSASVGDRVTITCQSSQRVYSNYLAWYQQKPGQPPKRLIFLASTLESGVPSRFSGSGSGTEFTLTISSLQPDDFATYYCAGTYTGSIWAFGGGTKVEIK = 7.46
Clone 28 (VH4Vκ4), humanised variant of clone #28, human IgG1 (antibody, V domains shown, also called VH4VK4; VH4Vk4) VH: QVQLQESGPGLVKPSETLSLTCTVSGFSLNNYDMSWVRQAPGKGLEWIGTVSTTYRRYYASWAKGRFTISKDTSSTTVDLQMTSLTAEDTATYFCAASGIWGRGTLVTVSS VL: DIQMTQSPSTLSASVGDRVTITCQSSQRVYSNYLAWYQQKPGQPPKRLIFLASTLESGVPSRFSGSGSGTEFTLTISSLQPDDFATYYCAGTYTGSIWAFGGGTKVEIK = 7.57

In: Could you share which pKd value was measured for Clone 27 (VH4Vκ2), humanised variant of clone #28, human IgG1 (antibody, V domains shown, also called VH4VK2; VH4Vk2) VH: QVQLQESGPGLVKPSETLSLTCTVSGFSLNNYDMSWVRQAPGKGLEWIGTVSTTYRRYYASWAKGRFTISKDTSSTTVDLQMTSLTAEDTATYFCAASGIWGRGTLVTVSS VL: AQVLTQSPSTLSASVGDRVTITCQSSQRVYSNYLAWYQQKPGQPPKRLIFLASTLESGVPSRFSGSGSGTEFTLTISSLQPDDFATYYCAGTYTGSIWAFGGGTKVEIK ?
Out: 7.36
